system.under.test: T1, human VEGF (human, UniProt P15692-4 27-191)
T1 construct: Bought recombinant protein; also called hVEGF; human VEGF-A
experiment.notes: SPR (BIAcore X100), VEGF on CM5 chip, IgG injected, 1:1 Langmuir
In this section, each of the binders is paired with its reported kon.
assay.metric: kon (M⁻¹ s⁻¹)

binder="HF2-8 (antibody, V domains shown, also called HF-8) VH: EVQLVESGGGLVQPGGSLRLSCAASGFHIRSHGMQWVRQAPGKGLEYVAGISSDGSWLKLSAAVEGRFTISRDDSKNTAYLQMNSLRAEDTAVYYCARDFSTGYGADSIDAWGQGTLVTVSS VL: DIQMTQSPSSLSASVGDRVTITCSGGSTYSLGYGWYQQKPGKAPKTLIYWDDKRPSGVPSRFSGSRSGTDFTLTISSLQPEDFATYYCGAWEYSGGVGIFGQGTKVEIK" reported=1.5e+06
binder="HF2-13 (antibody, V domains shown) VH: EVQLVESGGGLVQPGGSLRLSCAASGFLVRSHGMQWVRQAPGKGLEYVAGISSDGSWQRVNAAVEGRFTISRDDSKNTAYLQMNSLRAEDTAVYYCARDFSTGYGADSIDAWGQGTLVTVSS VL: DIQMTQSPSSLSASVGDRVTITCSGGSDLLLGYGWYQQKPGKAPKTLIYWDDKRPSGVPSRFSGSRSGTDFTLTISSLQPEDFATYYCGAWEYSGGVGIFGQGTKVEIK" reported=1.4e+06
binder="HF2-3 (antibody, V domains shown, also called HF-3) VH: EVQLVESGGGLVQPGGSLRLSCAASHFNMRSHGMQWVRQAPGKGLEYVAGISSDGSWFRVAAAVEGRFTISRDDSKNTAYLQMNSLRAEDTAVYYCARDFSTGYGADSIDAWGQGTLVTVSS VL: DIQMTQSPSSLSASVGDRVTITCSGGSDSAYGYGWYQQKPGKAPKTLIYWDDKRPSGAPSRFSGSRSGTDFTLTISSLQPEDFATYYCGAWEYSGGVGIFGQGTKVEIK" reported=1.3e+06
